Give self-cleavage for every item shown.
B1: HDV Ribozyme (parent)
chain: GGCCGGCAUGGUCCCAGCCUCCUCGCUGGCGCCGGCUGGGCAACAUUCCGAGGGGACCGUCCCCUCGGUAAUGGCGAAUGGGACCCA

Variants of: B1
PROCEDURE DETAILS: self-cleavage, relative activity (ratio to wild type); higher = more cleavage; co-transcriptional

MUTATION	self-cleavage
C13U C26A	1.23
U9C A51G	0.962
G68U G80A	0.171

For each of the variants below, note its self-cleavage.
1. G10A G28C
2. G29A A43G

Result:
1. 0.0683
2. 0.0386
